FYI, the data here is from ChEMBL document CHEMBL4219268.

# protocol notes: Drug metabolism in human liver microsomes assessed as metabolic rate per mg protein at 1 uM measured at 3 to 30 mins by LC-MS/MS analysis
# Assay type: ADME, microsome
Drug metabolism vs 30 pmol/min: at or above is T, below is F.

Check if Drug metabolism >= 30 pmol/min (inclusive). Item: CS(=O)(=O)O.CS(=O)(=O)O.Cc1cc(OCC(O)CN2CCN(c3ccc(Cc4ccc(F)cc4)cc3)CC2)c(C)c(C)c1N (stereo not given)
T

Check if Drug metabolism >= 30 pmol/min (inclusive). Item: Cc1cc(OCC(F)CN2CCN(c3ccc(Cc4ccc(F)cc4)cc3)CC2)c(C)c(C)c1N.Cl.Cl.Cl (stereo not given)
T

Check if Drug metabolism >= 30 pmol/min (inclusive). Item: Cc1cc(C)c(C)c(OCC(F)CN2CCN(c3ccc(Cc4ccc(F)cc4)cc3)CC2)c1.Cl.Cl (stereo not given)
F

Check if Drug metabolism >= 30 pmol/min (inclusive). Item: O=C1CCc2cc(OCC(O)CN3CCN(c4ccc(Cc5ccc(F)cc5)cc4)CC3)ccc2N1 (stereo not given)
F

Check if Drug metabolism >= 30 pmol/min (inclusive). Item: OC(COc1ccc2ncccc2c1)CN1CCN(c2ccc(Cc3ccc(F)cc3)cc2)CC1 (stereo not given)
T
